- System: HEK-293AI2 cells
- Assay type: cell-based, human
- condition_context: human, 5 µM
readout_name: Viability of Ctrl (%)

given_smiles=Nc1nc(Cl)nc2c1ncn2[C@@H]1O[C@H](CO)[C@@H](O)[C@@H]1F obs_value=15.42%
given_smiles=CC(=O)NC[C@H]1CN(c2ccc(N3CCOCC3)c(F)c2)C(=O)O1 obs_value=0.38%

Q: For `O=c1[nH]cc(F)c(=O)[nH]1` , what is its reported Viability of Ctrl (%)?
A: 1.53%
